Where these numbers come from: patent US20260234209A1

biological target: human FGFR1c (human), P11362; experiment: cell-based or functional assay
assay_metric: EC50 of ERK1/2 phosphorylation (phosphoflow) in CHO-R1c cells (nM)
The answer is to be given in nM; state only the numeric part.

What EC50 of ERK1/2 phosphorylation (phosphoflow) in CHO-R1c cells value was documented for this binder, C8-71C_mb7 (designed binder) MEKKIGPEEILERAKESLERAREASERGDEEEFRKAAEKALELAKRLVEQAKKEGDPELVLEAARVALWVAELAAKNGDKEVFKKAAESALEVAKRLVEVASKEGDPDLVAWAALVALWVAFLAFLNGDKEVFKKAAESALEVAKALMEVAMKVGAPWLVELAIAVARAVWLLAELFGDEEVRRRAEAFEIILRIAAIAVKAWLGGGGSDRRKEMDKVYRTAYKRITSTPDKEKRKEVVKEATEQLRRIAKDEEEKKKAAYMISFLKTLGSLEHHHHHH ?
2.07
